Settings: 296.65 K; 101.33 kPa; Liquid; Pulse-echo method
Numbers after ± are expanded uncertainties.
metric: speed of sound

- CC(C)C(=O)[O-].C[NH2+]CCO [2-hydroxy-N-methylethanaminium isobutyrate]: 1615.6 ± 2.1 m/s
- CCCC(=O)[O-].C[NH2+]CCO [N-methyl-2-hydroxyethylammonium butanoate]: 1619.3 ± 2.1 m/s
- C[NH2+]CCO.O=C[O-] [2-hydroxy-N-methylethanaminium formate]: 1818.2 ± 2.2 m/s
- CCCCC(=O)[O-].C[NH2+]CCO [2-hydroxy-N-methylethanaminium pentanoate]: 1553.5 ± 2.1 m/s
- CCC(=O)[O-].C[NH2+]CCO [2-hydroxy-N-methylethanaminium propionate]: 1694.5 ± 2.2 m/s

---

Details: 333.91 K; 101.33 kPa; Liquid; Vibrating tube method
metric: mass density (kg/m3)

* CCCC(=O)[O-].C[NH2+]CCO [N-methyl-2-hydroxyethylammonium butanoate] | 1014.72
* C[NH2+]CCO.O=C[O-] [2-hydroxy-N-methylethanaminium formate] | 1108.56
* CC(=O)[O-].C[NH2+]CCO [N-methyl-2-hydroxyethylammonium acetate] | 1078.87
* CCCCC(=O)[O-].C[NH2+]CCO [2-hydroxy-N-methylethanaminium pentanoate] | 991.71
* CCC(=O)[O-].C[NH2+]CCO [2-hydroxy-N-methylethanaminium propionate] | 1047.51
* CC(C)C(=O)[O-].C[NH2+]CCO [2-hydroxy-N-methylethanaminium isobutyrate] | 1019.76

---

Conditions: 313.66 K; 101.33 kPa; Liquid; Vibrating tube method
mass density values for the molecules below.
metric: mass density (kg/m3)

- CCC(=O)[O-].C[NH2+]CCO [2-hydroxy-N-methylethanaminium propionate]: 1061.17
- CCCC(=O)[O-].C[NH2+]CCO [N-methyl-2-hydroxyethylammonium butanoate]: 1028.8
- CC(=O)[O-].C[NH2+]CCO [N-methyl-2-hydroxyethylammonium acetate]: 1091.48
- C[NH2+]CCO.O=C[O-] [2-hydroxy-N-methylethanaminium formate]: 1119.6
- CCCCC(=O)[O-].C[NH2+]CCO [2-hydroxy-N-methylethanaminium pentanoate]: 1005.78
- CC(C)C(=O)[O-].C[NH2+]CCO [2-hydroxy-N-methylethanaminium isobutyrate]: 1033.33

---

Recorded refractive index for the following compounds
Assay: refractive index (Na D-line) (dimensionless)
Settings: 303.15 K; 101.33 kPa; Liquid; Standard Abbe refractometry
metric: refractive index

• CCCCC(=O)[O-].C[NH2+]CCO [2-hydroxy-N-methylethanaminium pentanoate] = 1.4524
• CCCC(=O)[O-].C[NH2+]CCO [N-methyl-2-hydroxyethylammonium butanoate] = 1.4534
• CCC(=O)[O-].C[NH2+]CCO [2-hydroxy-N-methylethanaminium propionate] = 1.452
• C[NH2+]CCO.O=C[O-] [2-hydroxy-N-methylethanaminium formate] = 1.4446

---

Details: 288.9 K; 101.33 kPa; Liquid; Pulse-echo method
metric: speed of sound (m/s)

• CCCCC(=O)[O-].C[NH2+]CCO [2-hydroxy-N-methylethanaminium pentanoate] = 1578.7
• C[NH2+]CCO.O=C[O-] [2-hydroxy-N-methylethanaminium formate] = 1833.4
• CC(C)C(=O)[O-].C[NH2+]CCO [2-hydroxy-N-methylethanaminium isobutyrate] = 1637.8
• CCC(=O)[O-].C[NH2+]CCO [2-hydroxy-N-methylethanaminium propionate] = 1717.7
• CCCC(=O)[O-].C[NH2+]CCO [N-methyl-2-hydroxyethylammonium butanoate] = 1644.8

---

speed of sound reference
Settings: 324.65 K; 101.33 kPa; Liquid; Pulse-echo method
metric: speed of sound (m/s)

• CCC(=O)[O-].C[NH2+]CCO [2-hydroxy-N-methylethanaminium propionate] = 1611.4
• C[NH2+]CCO.O=C[O-] [2-hydroxy-N-methylethanaminium formate] = 1763.8
• CCCC(=O)[O-].C[NH2+]CCO [N-methyl-2-hydroxyethylammonium butanoate] = 1531.5
• CCCCC(=O)[O-].C[NH2+]CCO [2-hydroxy-N-methylethanaminium pentanoate] = 1467
• CC(C)C(=O)[O-].C[NH2+]CCO [2-hydroxy-N-methylethanaminium isobutyrate] = 1536.3

---

Details: 323.41 K; 101.33 kPa; Liquid; Vibrating tube method
Consider the following molecules and their measured mass density readings.
metric: mass density (kg/m3)

• CCCCC(=O)[O-].C[NH2+]CCO [2-hydroxy-N-methylethanaminium pentanoate] = 999.06
• CCC(=O)[O-].C[NH2+]CCO [2-hydroxy-N-methylethanaminium propionate] = 1054.65
• C[NH2+]CCO.O=C[O-] [2-hydroxy-N-methylethanaminium formate] = 1114.2
• CCCC(=O)[O-].C[NH2+]CCO [N-methyl-2-hydroxyethylammonium butanoate] = 1022.08
• CC(=O)[O-].C[NH2+]CCO [N-methyl-2-hydroxyethylammonium acetate] = 1085.46
• CC(C)C(=O)[O-].C[NH2+]CCO [2-hydroxy-N-methylethanaminium isobutyrate] = 1026.86

---

Settings: 328.9 K; 101.33 kPa; Liquid; Pulse-echo method
metric: speed of sound (m/s)

- CCCC(=O)[O-].C[NH2+]CCO [N-methyl-2-hydroxyethylammonium butanoate]: 1518.2
- CCC(=O)[O-].C[NH2+]CCO [2-hydroxy-N-methylethanaminium propionate]: 1598.6
- CCCCC(=O)[O-].C[NH2+]CCO [2-hydroxy-N-methylethanaminium pentanoate]: 1453.9
- CC(C)C(=O)[O-].C[NH2+]CCO [2-hydroxy-N-methylethanaminium isobutyrate]: 1524.2
- C[NH2+]CCO.O=C[O-] [2-hydroxy-N-methylethanaminium formate]: 1755.6

---

Settings: 309.65 K; 101.33 kPa; Liquid; Pulse-echo method
metric: speed of sound (m/s)

• CC(C)C(=O)[O-].C[NH2+]CCO [2-hydroxy-N-methylethanaminium isobutyrate] = 1578.8
• C[NH2+]CCO.O=C[O-] [2-hydroxy-N-methylethanaminium formate] = 1792.9
• CCCC(=O)[O-].C[NH2+]CCO [N-methyl-2-hydroxyethylammonium butanoate] = 1578.4
• CCCCC(=O)[O-].C[NH2+]CCO [2-hydroxy-N-methylethanaminium pentanoate] = 1513
• CCC(=O)[O-].C[NH2+]CCO [2-hydroxy-N-methylethanaminium propionate] = 1656.1

---

Details: 283.15 K; 101.33 kPa; Liquid; Pulse-echo method
// reported speed of sound for each item listed
metric: speed of sound (m/s)

- CCCC(=O)[O-].C[NH2+]CCO [N-methyl-2-hydroxyethylammonium butanoate]: 1664.8
- CC(C)C(=O)[O-].C[NH2+]CCO [2-hydroxy-N-methylethanaminium isobutyrate]: 1654.7
- CCCCC(=O)[O-].C[NH2+]CCO [2-hydroxy-N-methylethanaminium pentanoate]: 1598.3
- C[NH2+]CCO.O=C[O-] [2-hydroxy-N-methylethanaminium formate]: 1844.8
- CCC(=O)[O-].C[NH2+]CCO [2-hydroxy-N-methylethanaminium propionate]: 1735.8

---

Settings: 319.91 K; 101.33 kPa; Liquid; Pulse-echo method
± gives the expanded uncertainty stated by the source.
Form field: speed of sound (one value per entry).
metric: speed of sound

- CCCCC(=O)[O-].C[NH2+]CCO [2-hydroxy-N-methylethanaminium pentanoate]: 1481.5 ± 2.1 m/s
- CCCC(=O)[O-].C[NH2+]CCO [N-methyl-2-hydroxyethylammonium butanoate]: 1546.4 ± 2.1 m/s
- C[NH2+]CCO.O=C[O-] [2-hydroxy-N-methylethanaminium formate]: 1772.9 ± 2.2 m/s
- CC(C)C(=O)[O-].C[NH2+]CCO [2-hydroxy-N-methylethanaminium isobutyrate]: 1549.9 ± 2.1 m/s
- CCC(=O)[O-].C[NH2+]CCO [2-hydroxy-N-methylethanaminium propionate]: 1625.7 ± 2.1 m/s

---

Conditions: 314.65 K; 101.33 kPa; Liquid; Pulse-echo method
Quick list: speed of sound per entry.
metric: speed of sound (m/s)

- CCCC(=O)[O-].C[NH2+]CCO [N-methyl-2-hydroxyethylammonium butanoate]: 1562.9
- CCC(=O)[O-].C[NH2+]CCO [2-hydroxy-N-methylethanaminium propionate]: 1641.3
- C[NH2+]CCO.O=C[O-] [2-hydroxy-N-methylethanaminium formate]: 1783.1
- CCCCC(=O)[O-].C[NH2+]CCO [2-hydroxy-N-methylethanaminium pentanoate]: 1497.6
- CC(C)C(=O)[O-].C[NH2+]CCO [2-hydroxy-N-methylethanaminium isobutyrate]: 1564.7

---

Conditions: 325.16 K; 101.33 kPa; Liquid; Pulse-echo method
// speed of sound lookup, one value per entry
metric: speed of sound (m/s)

* C[NH2+]CCO.O=C[O-] [2-hydroxy-N-methylethanaminium formate] | 1762.8
* CCCC(=O)[O-].C[NH2+]CCO [N-methyl-2-hydroxyethylammonium butanoate] | 1530
* CCC(=O)[O-].C[NH2+]CCO [2-hydroxy-N-methylethanaminium propionate] | 1609.9
* CCCCC(=O)[O-].C[NH2+]CCO [2-hydroxy-N-methylethanaminium pentanoate] | 1465.4
* CC(C)C(=O)[O-].C[NH2+]CCO [2-hydroxy-N-methylethanaminium isobutyrate] | 1534.9
